TARGET: T1, 2α PASB (HIF-2α PASB domain, 240-350) (UniProt Q99814 240-350, labelled with NT-647-NHS dye in MST; 15N (and 13C 15N) labelled in NMR)
T1 construct: range 240-350; also called PAS B domain of HIF-2α; not shown: His6 tag of vector pET28, then Met
T1 sequence (Q99814 240-350): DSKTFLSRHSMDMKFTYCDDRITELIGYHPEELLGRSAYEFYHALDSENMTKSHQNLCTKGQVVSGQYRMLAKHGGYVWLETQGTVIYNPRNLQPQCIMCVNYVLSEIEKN
TEST METHOD NOTES: MST, HIF-2α PASB domain
Starred links: 1 amine or outer side, 2 acyl side, 3 side chain; linkers in the order of their positions; H or OH if unused. Non-standard residues stand in square brackets, D forms with d. Tyr(Me) = 4-methoxyphenylalanine (O-methyl-tyrosine), COc1ccc(C[C@H](N[*:1])C(=O)[*:2])cc1; Tyr(3-NO2) = N[C@@H](Cc1ccc(O)c([N+](=O)[O-])c1)C(=O)O; Phe(4-CN) = N#Cc1ccc(C[C@H](N)C(=O)O)cc1; Phe(4-Me) = Cc1ccc(C[C@H](N)C(=O)O)cc1; Pal = not defined here
Measured Kd accompanies every entry in the list below.
Express it in µM; write the number only.

# example entries with known answers
cyclo(CRLLI[Tyr(3-NO2)]) (SMILES CC[C@H](C)[C@@H]1NC(=O)[C@H](CC(C)C)NC(=O)[C@H](CC(C)C)NC(=O)[C@H](CCCNC(=N)N)NC(=O)[C@H](CS)NC(=O)[C@H](Cc2ccc(O)c([N+](=O)[O-])c2)NC1=O, also called CRLLIX where X = 3-NO2-Y) [CRLLI(3-NO2-Y)] ... 49
cyclo(CRLLI[Tyr(Me)]) (SMILES CC[C@H](C)[C@@H]1NC(=O)[C@H](CC(C)C)NC(=O)[C@H](CC(C)C)NC(=O)[C@H](CCCNC(=N)N)NC(=O)[C@H](CS)NC(=O)[C@H](Cc2ccc(OC)cc2)NC1=O, also called CRLLIX where X = 4-MeO-F) [CRLLI(4-MeO-F)] ... 4.5
cyclo(CRLLI[Phe(4-Me)]) (also called CRLLIX where X = 4-Me-F) [CRLLI(4-Me-F)] ... 5.27
cyclo(CRLLI[Phe(4-CN)]) (also called CRLLIX where X = 4-CN-F) [CRLLI(4-CN-F)] ... 9.46

Now for another entry.
# input Endpoint output: Kd of cyclo(CRLLI[Pal]) (not fully specified; printed as CRLLI(Pal); reading uncertain, also called CRLLIX where X = Pal) [CRLLI(Pal)] . Value?
# output 45.3
